# Tested on: HCT-15 colon
# method.summary: NCI tumour cell line growth inhibition, 48 h
parameter.measured: TGI (µM)
One number for each entry, in µM.

test.smiles	unit.of.measure	TGI
CC/C=C\C[C@@H](O)C/C=C1/C(=O)C=C[C@H]1C/C=C\CCCC(=O)OC	µM	7.47

Next up:
Request: Query for HCT-15 colon: what TGI does the record show for CS(=O)(=O)c1ccc(-n2nc(C(F)(F)F)cc2OC2CCCC2)cc1 ?
Result: 80.1

---

Field: TGI. Provide a value for each of the molecules that follow.
# System: PC-3 prostate
# method.summary: NCI tumour cell line growth inhibition, 48 h

Check out these entries, answers already filled in.
molecule	target.or.system	result
CS(=O)(=O)CCNCc1ccc(-c2ccc3ncnc(Nc4ccc(OCc5ccccc5)cc4)c3c2)o1	PC-3 prostate	> 23.7 µM
Cc1cc2cc3c(cc2c(-c2ccc([N+](=O)[O-])cc2)n1)OCO3	PC-3 prostate	> 100 µM
COc1cc(C(=O)CBr)c(OC)cc1C	PC-3 prostate	> 100 µM
CN(C)/N=C(/CC(O)(C(F)(F)F)C(F)(F)F)c1ccc([N+](=O)[O-])cc1	PC-3 prostate	> 100 µM
CC1(C)C2CCC(CN)(C2)C1N (stereo unspecified)	PC-3 prostate	> 100 µM

As a next step, examine the molecule that follows.
Request: Query (molecule): CCOC(=O)C1(Cc2ccccc2)C=CN(C(=O)c2ccccc2)C=C1 ; field requested: TGI
Result: > 100 µM

---

# Test system: CCRF-CEM leukemia
# method.summary: NCI tumour cell line growth inhibition, 48 h; in the data active = GI50 below about 0.43 µM; inactive = the rest
One label from this list, please: true (1) for active, false (0) for inactive

molecule	class.label
Nc1nc2c(nnn2C2CC(O)C(CO)O2)c(=O)[nH]1 (configuration not stated)	false (0)
CC[C@@]1(c2ccccc2)C2=C(CC(C)(C)CC2=O)Nc2[nH]ncc21	false (0)
COc1ccc(-c2nc(-c3nc4ccc(Cl)cc4[nH]3)c3ccccn23)cc1	false (0)
COc1cc[nH]c1/C=C1\C(=O)Nc2ccc(F)c(C#CC3(O)CCNCC3)c21	true (1)
O=C(CC1C(=O)NN(c2ccc(Br)cc2)C1=O)c1cc(O)ccc1O (configuration not stated)	false (0)
O=C(CCc1nnc2sc(-c3ccc(Cl)cc3Cl)nn12)c1nc2ccccc2[nH]1	true (1)

Okay, next one:
Request: # lookup: test call for O=S(=O)(NC1=NCCN1C(=S)SN1CCn2c1nsc2=S)c1cccc(Cl)c1
Result: false (0)

---

# Test system: BT-549 breast
# method.summary: NCI tumour cell line growth inhibition, 48 h; in the data active means GI50 below about 0.43 µM; inactive means the rest
Answer with one of the outcomes true (1) = active, false (0) = inactive

# count of solved cases: 5
compound	target.or.system	class.label
Cc1ccc(-c2nc3nc(-c4ccccc4)nc(N4CCCNCC4)c3o2)cc1	BT-549 breast	false (0)
COc1ccc(-c2onc(N)c2-c2cc(OC)c3c(c2)OCO3)cc1	BT-549 breast	false (0)
CCCCCCCC(=O)OCC/C=C/C1OC1C1OC(=O)/C=C\C=C\c2nc(oc2C)/C=C(/C)CCC2OC2C1OC(=O)NC(C)=O (stereo not given)	BT-549 breast	true (1)
COc1ccc2c(c1)C(=O)c1c-2n(CCCn2ccnc2)c(=O)c2cc([N+](=O)[O-])ccc12	BT-549 breast	true (1)
Nc1nccc(-c2c(-c3ccc(F)cc3)ncn2C2CCC(O)CC2)n1 (stereo not given)	BT-549 breast	false (0)

Request: Outcome logged for COc1cc2cc(Oc3ccc(NC(=O)Nc4ccc(Cl)c(C(F)(F)F)c4)cc3)c(C)nc2cc1OCCN1CCOCC1 in this assay:
Result: false (0)

---

# System: CAKI-1 renal
# method.summary: NCI tumour cell line growth inhibition, 48 h
Task for the reader: assign each of the following molecules its reported TGI.

molecule	TGI
O=C(Cn1c2c(c3ccccc31)CCCC2)N1CCCC1	> 100 µM
CC(=O)N(C(C)=O)n1c(Cc2ccc(Cl)cc2)n[nH]c1=O	> 100 µM
CCOC(=S)SSSC(=S)OCC	> 100 µM

Would you be so kind as to report TGI for each listed record?
1. CCOC(=O)/C(C#N)=C/c1[nH]c(C(=O)OCc2ccccc2)c(C)c1C
2. CCOC1Oc2ccc(C)cc2C(=O)/C1=C\Nc1ccc(C(N)=O)cc1 (stereo not given)
3. CCN(CCO)C(=O)C1(c2ccccc2)CCCCC1
4. Cc1ccc(-c2nc3nc(-c4ccccc4)nc(N4CCCNCC4)c3o2)cc1

Result:
1. > 100 µM
2. 44.8 µM
3. > 10 µM
4. 3.22 µM

For each of the items listed, what is its TGI?
1. CS(=O)(=O)CCNCc1ccc(-c2ccc3ncnc(Nc4ccc(OCc5ccccc5)cc4)c3c2)o1
2. O=C1NC(=O)C(CCC(=O)c2ccc3ccccc3c2)C(=O)N1

Result:
> 25 µM
> 100 µM

Request: // fetch CAKI-1 renal TGI for CCOC(=O)/C(=C\c1ccccc1)C(=O)O
Result: > 100 µM

---

# Test system: HCT-15 colon
# method.summary: NCI tumour cell line growth inhibition, 48 h
For each of the compounds below, state its TGI.

Worked examples, 5 compounds total:
compound	result
O/N=C/c1ncccc1C1OCCO1	> 100 µM
CC1(C)C2CCC(CN)(C2)C1N (stereo unspecified)	> 100 µM
COc1cc[nH]c1/C=C1\C(=O)Nc2ccc(F)c(C#CC3(O)CCNCC3)c21	1.93 µM
CCN(CC)C(c1ccc(N(C)C)cc1)C(c1ccc(N(C)C)cc1)N(CC)CC (stereo unspecified)	> 73 µM
c1ccc(-c2nc3ccccc3n3c(CN4CCCCC4)nnc23)cc1	> 100 µM

Kindly give each listed record's TGI.
1. CCOC(=O)c1oc2cc3c(c4c2c1-c1ccccc1N4C)C=CC(C)(C)O3
2. O=S(=O)(SC1=NCCN1)c1ccc2ccccc2c1
3. CC1OC(OC2C(OC(=O)[C@]34CCC(C)(C)CC3C3=CCC5[C@@]6(C)C[C@H](O)[C@H](OC7OC(CO)C(O)C(O)C7N)[C@@](C)(C(=O)O)C6CC[C@@]5(C)C3(C)CC4)OCC(O)C2O)C(O)C(O)C1OC1OCC(O)C(O)C1O (stereo partly specified)
4. c1ccc2c(c1)CC1=C(O2)c2ccccc2OC1
5. O=C(O)/C=C(\c1nc2ccc([N+](=O)[O-])cc2[nH]1)c1cc(Cl)ccc1O
6. COc1ccc2nc3c(C(=O)NCCN(C)C)cccc3nc2c1
7. COc1cc(/C=N\N(C)C)cc(/C=N/N(C)C)c1O

Result:
1. > 100 µM
2. 71 µM
3. > 100 µM
4. 72.6 µM
5. 20.3 µM
6. 16.6 µM
7. > 100 µM

---

Exercise: state measured TGI for each of the compounds provided.
# Test system: EKVX NSCLC
# method.summary: NCI tumour cell line growth inhibition, 48 h

Example compounds with recorded TGI:
compound	TGI
c1ccc(-c2nc3ccccc3n3c(CN4CCCCC4)nnc23)cc1	> 100 µM
O=C(O)C(CS)Nc1c2ccccc2nc2ccccc12 (centres undefined)	> 100 µM
COC(=O)CC(c1cn(S(=O)(=O)c2ccc(C)cc2)c2ccccc12)C1C[C@@H](C(=O)OC)N(C(=O)OC(C)(C)C)C1=O (some centres undefined)	> 100 µM

List the reported TGI of each compound below.
1. COc1cc2cc(Oc3ccc(NC(=O)Nc4ccc(Cl)c(C(F)(F)F)c4)cc3)c(C)nc2cc1OCCN1CCOCC1
2. CC1CN1C(=O)NCCCCCCNC(=O)N1CC1C (centres undefined)
3. Nc1cccc(S(=O)(=O)NCC(=O)O)c1
4. COc1ccc2c(c1)C(=O)c1c-2n(CCCn2ccnc2)c(=O)c2cc([N+](=O)[O-])ccc12
5. COC(=O)c1cc2c(cc1CC1Cc3cc4c(cc3C1=O)CCC4)CCC2 (centres undefined)
6. CCN(CC)CCn1nc(N)c2nc3ccccc3nc21
7. O=S(=O)(O)C1=C2Sc3ccccc3N=C2c2ccccc2C1
8. C[C@]12CC[C@H](OC(=O)Cc3ccc(N(CCCl)CCCl)cc3)CC1=CC[C@@H]1[C@@H]2CC[C@]2(C)C(=O)CC[C@@H]12

Result:
13.7 µM
> 100 µM
> 100 µM
> 50.9 µM
> 100 µM
> 100 µM
32 µM
> 100 µM

Dear colleague, could you please provide TGI for the compounds listed below?
1. COC(=O)c1cc(C)ccc1C1CN=NC12Cc1ccc(C)cc1C2=O (centres undefined)
2. COc1ccccc1N(CN1C(=O)CCC1C(=O)O)C(C)=O (centres undefined)
3. COc1ccccc1NC(=S)Nc1cc(C)cc(C)n1
4. O=C(Nc1ccc(-c2nc(N3CCOCC3)c3cccn3n2)cc1)Nc1cccnc1
5. CCOC(=O)c1oc2cc3c(c4c2c1-c1ccccc1N4C)C=CC(C)(C)O3

Result:
1. > 100 µM
2. > 100 µM
3. > 100 µM
4. 0.975 µM
5. 46.6 µM

Hi, could you look up TGI for each item in my list?
1. OC1(c2ccccc2)C2CCN(CC2)C1CN1CCOCC1 (centres undefined)
2. C=C(C[C@](O)(C(=O)/C=C/c1ccc(Cl)cc1)C(=O)OC)c1ccccc1
3. COc1cc2ncn(-c3cc(OCc4cccs4)c(C(N)=O)s3)c2cc1OC

Result:
1: > 100 µM; 2: 16.9 µM; 3: > 25 µM
